Data provenance is ChEMBL document CHEMBL1201862.

Test system: HOP-18
Test: NCI tumour cell line growth inhibition, 48 h
The source made the active and inactive calls. Cut-off read from the data, not from the text of the source: active = GI50 up to about 1.1 µM and inactive = higher.
The reply should name one outcome from active, inactive

Solved entries:
>>> class("Cc1c(N(C)C)ccc2c(=O)c3cccc(CC(=O)O)c3oc12")
"inactive"
>>> class("O=C(O/N=C1/CCCC/C1=C\\c1ccccc1)c1ccc(Cl)cc1")
"inactive"
>>> class("O=C1CC2C(=O)N(Cc3ccccc3)C1C(S(=O)(=O)c1ccccc1)C2S(=O)(=O)c1ccccc1 (stereo unspecified)")
"inactive"
>>> class("O=S(=O)(N/N=C/c1ccc(Cl)c(Cl)c1)c1ccccc1")
"inactive"
>>> class("CC(=O)Oc1ccc(O)c(O)c1C/C=C(\\C)CC/C=C(\\C)CC/C=C(\\C)CCC=C(C)C")
"active"
>>> class("Cc1cc(O)nc(NN2C(Cl)C(=O)C2c2ccc(Cl)cc2)n1 (stereo unspecified)")
"inactive"
>>> class("CC1CCC2(OCCO2)[C@]2(C)CC(O)C(=O)C=C12 (stereo partly specified)")
"inactive"
>>> class("Cc1nc2ccccc2c(=O)n1/N=C(\\N=N\\c1cc(Cl)ccc1Cl)c1cccc(-c2ccco2)c1")
"inactive"
>>> class("CCc1c(OC(C)=O)c2c(NC3OC(COC(C)=O)C(OC(C)=O)C(OC(C)=O)C3OC(C)=O)nc(OC)nc2oc1=O (stereo unspecified)")
"inactive"
>>> class("COc1ccc2c(c1)CCCN2CCCCCCCCCCN(CCC(C)C)CCC(C)C")
"inactive"

Let's switch to this molecule now.
Q) In this assay, the call recorded for CCC(C)(O)c1cn(-c2ccc(Cl)cc2)nn1 (stereo unspecified) was what?
A) inactive

---

Exercise: for every item that follows, state its recorded GI50.
System: RPMI-8226
Experiment: NCI tumour cell line growth inhibition, 48 h
Activity calls are given as the source filed them. Rule as the data show it: active = GI50 up to about 1.1 µM and inactive = higher.

Some solved entries appear below for comparison.
>>> reading("OCc1ccc2c(c1)CC1(Cc3ccc(/C=N/O)cc3C1)C2 (stereo not given)")
"2.25 µM (inactive)"
>>> reading("O=C(/C(=C/c1ccccc1)c1ccccc1)N1c2ccccc2CC1c1c[nH]c2ccccc12 (stereo not given)")
"15.6 µM (inactive)"
>>> reading("O=S(=O)(O)c1cc(O)c(/N=N/c2ccc3ccccc3c2O)c2ccccc12")
"41.7 µM (inactive)"
>>> reading("Clc1ccccc1C(Nc1ncccn1)Nc1ncccn1")
"> 100 µM (inactive)"
>>> reading("O=C(c1ccc2ccccc2c1O)N1CCCCC1")
"27.4 µM (inactive)"

I would be grateful if you could provide GI50 for each of the following entries.
1. FC(F)(F)c1nc2ccc3[nH]c4c(-c5ccccc5)nccc4c3c2[nH]1
2. CN1CCC2(CC1)/C(=N/C1CCCCC1)NC(=S)N2c1ccccc1
3. C=C1C(=O)OC2C1C(OC(=O)/C(C)=C/C)CC(O)(CCl)C1C(OC(C)=O)C=C(C)C21O (stereo not given)
4. CN(C)Cc1cc(C(=O)O)cc(CN(C)C)c1O
5. CCC(C)[C@H]1C(=O)N=C(N)N1C(=O)OCc1ccccc1 (stereo not given in full)

A)
["> 42.9 µM (inactive)", "> 100 µM (inactive)", "7.01 µM (inactive)", "> 100 µM (inactive)", "> 100 µM (inactive)"]

---

Test system: BT-549
Assay: NCI tumour cell line growth inhibition, 48 h
The source made the active and inactive calls. Cut-off read from the data, not from the text of the source: active = GI50 up to about 1.1 µM and inactive = higher.
MEASURED_ENDPOINT: GI50

Some solved entries appear below for comparison.
>>> reading("Cc1ccc(C(=O)N/N=C2/C(=O)c3c4ccccc4cc4cccc2c34)cc1")
"> 100 µM (inactive)"
>>> reading("CC1(C)[C@@H](Cn2cnc3c(N)ncnc32)CC[C@@]1(C)CO")
"> 100 µM (inactive)"
>>> reading("COc1cc2c(cc1OC)C(=O)/C(=C/c1ccc(N(C)C)cc1)CC2")
"> 10 µM (inactive)"

I would be grateful if you could provide GI50 for each of the following entries.
1. Cc1ccc(S(=O)(=O)N/N=C2\C(=O)Nc3cc(O)c(C(=O)O)cc32)cc1
2. O=C1/C(=c2\c3ccccc3n3c(=O)c4ccccc4nc23)Nc2ccccc21 [CANDIDINE]
3. CCN1CCC(O)(c2ccc(Oc3ccc(C)cc3)cc2)C(C(=O)c2ccc(Oc3ccc(C)cc3)cc2)C1 (centres undefined)
4. COc1ccc(OC)c2sc(N3C(=O)/C(=C/c4ccc(N(C)C)cc4)N=C3c3ccccc3)nc12

A)
["> 100 µM (inactive)", "> 100 µM (inactive)", "10.6 µM (inactive)", "97.1 µM (inactive)"]

I would be grateful if you could provide GI50 for each of the following entries.
1. O=C(Cc1ccccc1)NN1C(=O)/C(=C\c2ccccc2O)S/C1=N\c1ccccc1
2. COC(=O)C1CCCN1C(=O)OC(C)(C)C (centres undefined)

A)
1: > 100 µM (inactive); 2: > 100 µM (inactive)

---

System: SK-MEL-5
Test: NCI tumour cell line growth inhibition, 48 h
Activity calls are given as the source filed them. Cut-off read from the data, not from the text of the source: active = GI50 up to about 1.1 µM and inactive = higher.
The reply should name one outcome from T = active, F = inactive

>>> class("NCCCCN(CCCN)C(=O)c1ccccc1")
"F"

Q) In this assay, the call recorded for Cc1c(N(C)C)ccc2c(=O)c3cccc(CC(=O)O)c3oc12 was what?
A) F

Q) In this assay, the call recorded for COC(=O)C1CCCN1C(=O)OC(C)(C)C (centres undefined) was what?
A) F

Q) In this assay, the call recorded for CC(C)c1cc(C(C)C)c(B(c2ccccc2)c2ccccc2)c(C(C)C)c1B(c1ccccc1)c1ccccc1 was what?
A) F

Q) In this assay, the call recorded for C=C(C)c1cc(C(C)(C)C)cc(C(=C)C)c1S(C)(=O)=O was what?
A) F

Q) In this assay, the call recorded for O=C1CCCSC(=O)N1Cc1ccccc1 was what?
A) F

---

Test system: T47D
Assay: NCI tumour cell line growth inhibition, 48 h
Calls of active or inactive are those of the source. Cut-off read from the data, not from the text of the source: active = GI50 up to about 1.1 µM and inactive = higher.
The reply should name one outcome from active, inactive

Solved entries:
>>> class("CC(C)(CO[C@H]1C[C@H]2CC[C@@]1(C)C2(C)C)[N+](=O)[O-]")
"inactive"
>>> class("CN(C)CCCNC(=O)c1cc(NC(=O)c2cc(NS(=O)(=O)c3ccc4c(c3)C(=O)c3ccccc3C4=O)cn2C)cn1C")
"inactive"
>>> class("CSc1nc2cc(S(=O)(=O)N3CCCCC3)ccc2s1")
"inactive"
>>> class("C=CCSc1nnc2cc(CN3CCCC3)c(-c3ccc(Cl)cc3)nn12")
"inactive"
>>> class("Cc1nc(C)c(C(=O)NNC(=O)C[N+](C)(C)C)cc1C(=O)NNC(=O)C[N+](C)(C)C")
"inactive"
>>> class("Cc1ccc(P(c2ccc(C)cc2)c2ccc(C)cc2)cc1")
"inactive"
>>> class("COC1(OC)C[C@H](C)[C@@]23O[C@]24C2=CC(=O)C=CC2=N[C@H]3C#C/C=C\\C#C[C@]14O")
"active"
>>> class("Cc1ccc(S(=O)(=O)N/N=C2\\C(=O)Nc3cc(O)c(C(=O)O)cc32)cc1")
"inactive"
>>> class("CC(=O)OC[C@]12CCC3[C@@]4(C)CCCC(C)(C)C4CC[C@@]3(C)C1CC(C1=CC(=O)OC1O)O2 (stereo not given in full)")
"inactive"
>>> class("CC1=CC(=O)c2cccc(NC3=NCCO3)c21")
"inactive"

Let's switch to this compound now.
Q) In this assay, the call recorded for C/C(Cl)=N\OC(=O)Nc1ccccc1C(F)(F)F was what?
A) inactive

---

Test system: NCI/ADR-RES
Assay: NCI tumour cell line growth inhibition, 48 h
Calls of active or inactive are those of the source. Rule as the data show it: active = GI50 up to about 1.1 µM and inactive = higher. *1 amine or outer side, *2 acyl side, *3 side chain or, on linkers, in order; H or OH if unused. Where a SMILES comes first, the peptide text is derived from it. [ ]: non-standard residue; d: D form. The star is where a group is joined. ξ: configuration not given here. X43 = CCC(=O)CC(O)CC(C)CC(N[*:1])C(=O)[*:2]; ξLeu(3ξ-OH) = CC(C)C(O)C(N)C(=O)O; ξPro(4ξ-Me) = CC1CNC(C(=O)O)C1; X42 = CCC(C)/C=C/C(=O)*; Aib = CC(C)(N)C(=O)O; X44 = CC(CN(C)C)N*; βAla = NCCC(=O)O
Exercise: for every item that follows, state its recorded GI50.

Some solved entries appear below for comparison.
>>> reading("CCOC(=O)c1c(N2CCCC2)[nH]c(=O)c(C(c2cccs2)c2c(O)c(C(=O)OCC)c(N3CCCC3)[nH]c2=O)c1O")
"> 100 µM (inactive)"
>>> reading("CCC(=O)CC(O)CC(C)CC(NC(=O)C1CC(C)CN1C(=O)/C=C/C(C)CC)C(=O)NC(C(=O)NC(C)(C)C(=O)NC(CC(C)C)C(=O)NC(CC(C)C)C(=O)NC(C)(C)C(=O)NC(C)(C)C(=O)NCCC(=O)NC(C)CN(C)C)C(O)C(C)C (configuration not stated) (X42-[ξPro(4ξ-Me)][X43][ξLeu(3ξ-OH)][Aib]LL[Aib][Aib][βAla]-X44; configuration not given here)")
"7.08 µM (inactive)"
>>> reading("COc1cccc(C2c3cc4c(cc3OC(N3CCCCC3)C2C)OCO4)c1O (configuration not stated)")
"5.12 µM (inactive)"
>>> reading("O=C(O)c1cc(Sc2ccc([N+](=O)[O-])c(C(=O)O)c2)ccc1[N+](=O)[O-]")
"> 100 µM (inactive)"
>>> reading("O=c1cnn(C2OC(CO)C(O)C(F)C2O)c(=O)[nH]1 (configuration not stated)")
"> 100 µM (inactive)"

I would be grateful if you could provide GI50 for each of the following entries.
1. NCCCCN(CCCN)C(=O)c1ccccc1
2. C/C(=N\NC(=S)N1CC2CCC(CC2)C1)c1cccc(C)n1

A)
1: > 100 µM (inactive); 2: 0.01 µM (active)
